Test system: P. vulgatus RND KO
Assay: growth AUC normalised to DMSO control (median) (fraction of control); higher = less growth inhibition, active = hit call of the paper
Conditions: 20 µM
Structures can show the parent of a compound that is named as a salt.
Measured growth AUC normalised to DMSO control values are reported for all entries that follow.
MEASURED PROPERTY: growth AUC normalised to DMSO control

{"MOLECULE": "CC(C)c1cc2c(cc1S(=O)(=O)O)[C@@]1(C)CCC[C@@](C)(C(=O)O)[C@@H]1CC2 [Ecabet sodium]", "RESULT NUMBER": 1.01}
{"MOLECULE": "CCCCS(=O)(=O)N[C@@H](Cc1ccc(OCCCCC2CCNCC2)cc1)C(=O)O [Tirofiban hydrochloride]", "RESULT NUMBER": 0.994}
{"MOLECULE": "CN1CCC(=C2c3ccccc3CCc3cccnc32)CC1 [Azatadine maleate]", "RESULT NUMBER": 0.998}
{"MOLECULE": "CCOCC(O)COc1ccc(NC(=O)CC[S+](C)C)cc1 (stereo not given) [Suplatast Tosylate]", "RESULT NUMBER": 0.998}
{"MOLECULE": "CNC1(C)C2CCC(C2)C1(C)C (stereo not given) [Mecamylamine hydrochloride]", "RESULT NUMBER": 1.09}

###

Test system: S. enterica typhimurium tolC KO
Experiment: growth AUC normalised to DMSO control (median) (fraction of control); higher = less growth inhibition, active = hit call of the paper
Conditions: 20 µM
Structures can show the parent of a compound that is named as a salt.
Outcome codes: YES (active), NO (inactive)

{"MOLECULE": "O=C(C1CCCCC1)N1CC(=O)N2CCc3ccccc3C2C1 (stereo not drawn) [Praziquantel]", "CATEGORY": "NO"}
{"MOLECULE": "O=C(O)c1cc(/N=N/c2ccc(S(=O)(=O)Nc3ccccn3)cc2)ccc1O [Sulfasalazine]", "CATEGORY": "NO"}
{"MOLECULE": "Cc1cc2c(s1)Nc1ccccc1N=C2N1CCN(C)CC1 [Olanzapine]", "CATEGORY": "NO"}
{"MOLECULE": "CCn1cc(C(=O)O)c(=O)c2ccc(C)nc21 [Nalidixic acid sodium salt]", "CATEGORY": "YES"}
{"MOLECULE": "CO[C@H]1/C=C/O[C@@]2(C)Oc3c(C)c(O)c4c(O)c(c(/C=N/N5CCN(C6CCCC6)CC5)c(O)c4c3C2=O)NC(=O)/C(C)=C\\C=C\\[C@H](C)[C@H](O)[C@@H](C)[C@@H](O)[C@@H](C)[C@H](OC(C)=O)[C@@H]1C [Rifapentine]", "CATEGORY": "NO"}
{"MOLECULE": "O=S(=O)(O)c1cc(O)ccc1O [Ethamsylate diethylammonium salt]", "CATEGORY": "NO"}
{"MOLECULE": "CC(C)COCC(CN(Cc1ccccc1)c1ccccc1)N1CCCC1 (stereo not drawn) [Bepridil hydrochloride]", "CATEGORY": "NO"}
{"MOLECULE": "CC(C)Oc1ccc2c(=O)c(-c3ccccc3)coc2c1 [Ipriflavone]", "CATEGORY": "NO"}

###

System: P. vulgatus RND KO
Test: growth AUC normalised to DMSO control (median) (fraction of control); higher = less growth inhibition, active = hit call of the paper
Settings: 20 µM
Where a name gives a salt, the structure may show the parent alone.
Outcome codes: T (active), F (inactive)

{"MOLECULE": "Nc1nc2[nH]cnc2c(=S)[nH]1", "TESTED SYSTEM": "P. vulgatus RND KO", "CATEGORY": "F"}
{"MOLECULE": "NC(=O)c1cccnc1 [Nicotinamide]", "TESTED SYSTEM": "P. vulgatus RND KO", "CATEGORY": "F"}
{"MOLECULE": "CCC(=O)O[C@@H]1CC(=O)O[C@H](C)C/C=C/C=C/[C@H](O)[C@H](C)C[C@H](CC=O)[C@H](O[C@@H]2O[C@H](C)[C@@H](O[C@H]3C[C@@](C)(O)[C@@H](OC(=O)CC)[C@H](C)O3)[C@H](N(C)C)[C@H]2O)[C@H]1OC", "TESTED SYSTEM": "P. vulgatus RND KO", "CATEGORY": "T"}
{"MOLECULE": "N=C(N)NC(=O)Cc1c(Cl)cccc1Cl [Guanfacine hydrochloride]", "TESTED SYSTEM": "P. vulgatus RND KO", "CATEGORY": "F"}

###

Test system: Yersinia pseudotuberculosis
Assay: growth AUC normalised to DMSO control (fraction of control); higher = less growth inhibition, active = hit call of the paper
Settings: 20 µM
Counter-ions that a name gives are not always drawn.
Measured growth AUC normalised to DMSO control values are reported for all entries that follow.
MEASURED PROPERTY: growth AUC normalised to DMSO control

{"COMPOUND": "CC(C)(C)NC(=O)[C@@H]1C[C@@H]2CCCC[C@@H]2CN1C[C@@H](O)[C@H](Cc1ccccc1)NC(=O)[C@H](CC(N)=O)NC(=O)c1ccc2ccccc2n1 [Saquinavir mesylate]", "TESTED SYSTEM": "Yersinia pseudotuberculosis", "RESULT NUMBER": 1.03}
{"COMPOUND": "CC1(C)S[C@@H]2[C@H](NC(=O)[C@H](C(=O)O)c3ccsc3)C(=O)N2[C@H]1C(=O)O [Ticarcillin sodium]", "TESTED SYSTEM": "Yersinia pseudotuberculosis", "RESULT NUMBER": 0.0593}
{"COMPOUND": "O=c1[nH]c(=O)n([C@H]2C[C@H](O)[C@@H](CO)O2)cc1I", "TESTED SYSTEM": "Yersinia pseudotuberculosis", "RESULT NUMBER": 0.984}
{"COMPOUND": "OC(CCN1CCCCC1)(c1ccccc1)c1ccccc1 [Pridinol methanesulfonate salt]", "TESTED SYSTEM": "Yersinia pseudotuberculosis", "RESULT NUMBER": 0.988}
{"COMPOUND": "CC(=O)N[C@@H](CC(C)C)C(=O)O", "TESTED SYSTEM": "Yersinia pseudotuberculosis", "RESULT NUMBER": 1}
{"COMPOUND": "Clc1ccc(C(Cn2ccnc2)OCc2c(Cl)cccc2Cl)c(Cl)c1 (stereo unspecified)", "TESTED SYSTEM": "Yersinia pseudotuberculosis", "RESULT NUMBER": 1.01}
{"COMPOUND": "CC1(C)O[C@@H]2C[C@H]3[C@@H]4CCC5=CC(=O)CC[C@]5(C)[C@@]4(F)[C@@H](O)C[C@]3(C)[C@]2(C(=O)CCl)O1 [Halcinonide]", "TESTED SYSTEM": "Yersinia pseudotuberculosis", "RESULT NUMBER": 1}
{"COMPOUND": "CCCCNc1cc(C(=O)O)cc(S(N)(=O)=O)c1Oc1ccccc1 [Bumetanide]", "TESTED SYSTEM": "Yersinia pseudotuberculosis", "RESULT NUMBER": 0.995}
{"COMPOUND": "Clc1ccc2c(c1)CCc1cccnc1C2=C1CCNCC1", "TESTED SYSTEM": "Yersinia pseudotuberculosis", "RESULT NUMBER": 0.998}
{"COMPOUND": "CCCOc1cc(N)ccc1C(=O)OCCN(CC)CC [Propoxycaine hydrochloride]", "TESTED SYSTEM": "Yersinia pseudotuberculosis", "RESULT NUMBER": 1.02}
{"COMPOUND": "CC(C)OC(=O)C(C)(C)Oc1ccc(C(=O)c2ccc(Cl)cc2)cc1 [Fenofibrate]", "TESTED SYSTEM": "Yersinia pseudotuberculosis", "RESULT NUMBER": 0.992}
{"COMPOUND": "CC(=O)NS(=O)(=O)c1ccc(N)cc1 [Sulfacetamide sodic hydrate]", "TESTED SYSTEM": "Yersinia pseudotuberculosis", "RESULT NUMBER": 0.998}
{"COMPOUND": "Cn1c(=O)c2c(ncn2CC(=O)O)n(C)c1=O", "TESTED SYSTEM": "Yersinia pseudotuberculosis", "RESULT NUMBER": 0.987}
{"COMPOUND": "CC(=O)N(CC(O)CN(C(C)=O)c1c(I)c(C(=O)NCC(O)CO)c(I)c(C(=O)NCC(O)CO)c1I)c1c(I)c(C(=O)NCC(O)CO)c(I)c(C(=O)NCC(O)CO)c1I (stereo unspecified)", "TESTED SYSTEM": "Yersinia pseudotuberculosis", "RESULT NUMBER": 0.977}
{"COMPOUND": "CC(C)(C)NC[C@H](O)c1ccc(O)c(CO)c1 [Levalbuterol hydrochloride]", "TESTED SYSTEM": "Yersinia pseudotuberculosis", "RESULT NUMBER": 0.992}
{"COMPOUND": "NC(N)=Nc1nc(CSCC/C(N)=N/S(N)(=O)=O)cs1", "TESTED SYSTEM": "Yersinia pseudotuberculosis", "RESULT NUMBER": 0.97}
